melting point reference

The compound Cc1nnc(Cl)c(-c2c(F)cc(F)cc2F)c1-c1ccc(Cl)nc1 showed melting point equal to 182 to 183 °C

melting point in this record for COc1ccc(S(=O)(=O)C2(C(=O)NO)CCN(C3CCCCCCC3)CC2)cc1 : > 200 °C

// melting point value for O=c1c2ccccc2nc(CCl)n1-c1ccc(Cl)cc1 : 234 to 235 °C

* * *

experimental.readout: melting point

melting point reading for COC(=O)c1cc(-c2nc(COc3ccc(CCl)cc3OC)c(C)o2)ccc1OS(C)(=O)=O : 146 to 147 °C

Lab note: O=C(O)CCc1ccc(CCNC(=O)C2Cc3ccccc3N2S(=O)(=O)c2ccc(-c3cccc(C(F)(F)F)c3)cc2)cc1 (configuration not stated) gave melting point of 86 °C

Input O=C(Nc1ccncn1)C(CC1CCCC1)c1cccc(C(F)(F)F)c1 (configuration not stated) . Output melting point: 113 to 115 °C

Summary for this molecule, COC(=O)c1cccc(NC(=O)CSC(C)=O)c1 : melting point is 118 to 120 °C

Let us examine a further case.
// melting point value for CC(=O)OCC(=O)C12OCOC1CC1C3CCC4=CC(=O)C=CC4(C)C3(Cl)C(O)CC12C (configuration not stated) : 244 to 245 °C
